TESTED TARGET: T1, human pIgR extracellular domain (ECD) (human, UniProt P01833 19-638)
T1 construct: also called hpIgR ECD
T1 sequence (P01833 other isoform, or with tags, fused parts or gaps): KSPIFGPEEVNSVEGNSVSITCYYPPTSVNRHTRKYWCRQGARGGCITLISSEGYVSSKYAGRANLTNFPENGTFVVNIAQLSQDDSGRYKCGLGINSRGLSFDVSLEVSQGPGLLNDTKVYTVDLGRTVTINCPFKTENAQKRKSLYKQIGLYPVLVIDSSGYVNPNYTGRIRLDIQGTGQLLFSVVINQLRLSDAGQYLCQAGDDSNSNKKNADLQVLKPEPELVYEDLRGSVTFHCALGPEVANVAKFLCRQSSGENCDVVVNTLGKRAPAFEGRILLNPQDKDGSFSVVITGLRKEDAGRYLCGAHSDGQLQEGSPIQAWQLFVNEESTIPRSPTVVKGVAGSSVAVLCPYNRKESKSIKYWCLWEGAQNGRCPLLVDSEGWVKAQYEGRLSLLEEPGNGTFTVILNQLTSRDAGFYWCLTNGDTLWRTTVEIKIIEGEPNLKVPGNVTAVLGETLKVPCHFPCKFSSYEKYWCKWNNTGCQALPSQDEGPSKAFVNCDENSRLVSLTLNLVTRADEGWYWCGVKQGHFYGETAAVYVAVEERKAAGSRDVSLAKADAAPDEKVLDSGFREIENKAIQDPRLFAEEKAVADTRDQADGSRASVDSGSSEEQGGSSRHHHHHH
ASSAY SUMMARY: ECL (MSD), anti-VHH detection against anti-Fc detection
Please use true for Fold change in EC50 under 2 fold and false for everything else, ties included.

BINDER | QUALITATIVE LABEL
VHH12-linker-mono-Fc protein (Fc fusion, made in CHO cells; also called VHH12-mono-Fc; hpIgR_266) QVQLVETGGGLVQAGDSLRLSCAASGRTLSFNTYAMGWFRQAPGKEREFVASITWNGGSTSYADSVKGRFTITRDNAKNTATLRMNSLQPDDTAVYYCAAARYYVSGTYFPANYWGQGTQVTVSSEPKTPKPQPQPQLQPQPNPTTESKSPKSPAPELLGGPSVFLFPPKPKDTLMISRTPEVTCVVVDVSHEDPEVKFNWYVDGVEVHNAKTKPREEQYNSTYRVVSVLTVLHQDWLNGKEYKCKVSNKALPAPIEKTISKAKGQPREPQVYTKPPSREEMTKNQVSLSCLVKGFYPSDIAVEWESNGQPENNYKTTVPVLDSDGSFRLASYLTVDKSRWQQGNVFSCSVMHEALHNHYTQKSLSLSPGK | true
VHH10-linker-mono-Fc protein (Fc fusion, made in CHO cells; also called VHH10-mono-Fc; hpIgR_225) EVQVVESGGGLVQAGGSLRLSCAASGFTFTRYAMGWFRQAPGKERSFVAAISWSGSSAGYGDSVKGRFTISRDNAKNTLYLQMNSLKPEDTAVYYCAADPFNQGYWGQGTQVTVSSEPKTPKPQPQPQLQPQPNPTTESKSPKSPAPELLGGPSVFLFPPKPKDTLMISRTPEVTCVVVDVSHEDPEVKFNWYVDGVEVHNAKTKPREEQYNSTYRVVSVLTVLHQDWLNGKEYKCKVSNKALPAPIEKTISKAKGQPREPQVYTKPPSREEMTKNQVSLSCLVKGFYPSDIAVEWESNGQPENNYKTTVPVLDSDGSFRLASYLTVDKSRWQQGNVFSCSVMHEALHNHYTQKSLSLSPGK | false
VHH7-linker-mono-Fc protein (Fc fusion, made in CHO cells; also called VHH7-mono-Fc; hpIgR_198) EVQVVESGGGLVQAGGSLRLACVASRSIGSINVMGWYRQAPGKQRDLVARITGGGSTHYAESVKGRFTISRDNAKNTVYLQMNSLEPEDTAVYYCASMVNPIITAWGTIGVREIPDYDYWGQGTQVTVSSEPKTPKPQPQPQLQPQPNPTTESKSPKSPAPELLGGPSVFLFPPKPKDTLMISRTPEVTCVVVDVSHEDPEVKFNWYVDGVEVHNAKTKPREEQYNSTYRVVSVLTVLHQDWLNGKEYKCKVSNKALPAPIEKTISKAKGQPREPQVYTKPPSREEMTKNQVSLSCLVKGFYPSDIAVEWESNGQPENNYKTTVPVLDSDGSFRLASYLTVDKSRWQQGNVFSCSVMHEALHNHYTQKSLSLSPGK | false

Query :: Please let me know if VHH5-linker-mono-Fc protein (Fc fusion, made in CHO cells; also called VHH5-mono-Fc; hpIgR_175) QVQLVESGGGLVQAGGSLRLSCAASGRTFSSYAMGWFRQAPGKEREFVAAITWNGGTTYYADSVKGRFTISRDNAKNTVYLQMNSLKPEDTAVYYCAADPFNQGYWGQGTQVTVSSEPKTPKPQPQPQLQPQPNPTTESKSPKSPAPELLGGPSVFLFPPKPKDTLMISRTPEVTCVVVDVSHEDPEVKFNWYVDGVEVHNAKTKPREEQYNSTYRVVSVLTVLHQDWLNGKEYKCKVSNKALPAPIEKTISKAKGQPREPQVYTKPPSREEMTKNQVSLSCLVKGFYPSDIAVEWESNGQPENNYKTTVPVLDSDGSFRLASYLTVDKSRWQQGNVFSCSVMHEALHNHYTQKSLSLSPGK shows Fold change in EC50 below 2 fold.
Result :: false

Query :: What do you get for VHH3-linker-mono-Fc protein (Fc fusion, made in CHO cells; also called VHH3-mono-Fc; hpIgR_021) QLQLVESGGGLVQPGGSLRLSCAASGSIFSINVMGWYRQAPGKQRELVARINGGGITHYAESVKGRFTISRDNAKNTVYLQMNSLKPEDTAAYYCKADVFGSSGYVETYWGQGTQVTVSSEPKTPKPQPQPQLQPQPNPTTESKSPKSPAPELLGGPSVFLFPPKPKDTLMISRTPEVTCVVVDVSHEDPEVKFNWYVDGVEVHNAKTKPREEQYNSTYRVVSVLTVLHQDWLNGKEYKCKVSNKALPAPIEKTISKAKGQPREPQVYTKPPSREEMTKNQVSLSCLVKGFYPSDIAVEWESNGQPENNYKTTVPVLDSDGSFRLASYLTVDKSRWQQGNVFSCSVMHEALHNHYTQKSLSLSPGK ?
Result :: false
